Target: fibrinogen (Bos taurus, UniProt P02672+P02676+P12799)
Sequence (P02672 20-615): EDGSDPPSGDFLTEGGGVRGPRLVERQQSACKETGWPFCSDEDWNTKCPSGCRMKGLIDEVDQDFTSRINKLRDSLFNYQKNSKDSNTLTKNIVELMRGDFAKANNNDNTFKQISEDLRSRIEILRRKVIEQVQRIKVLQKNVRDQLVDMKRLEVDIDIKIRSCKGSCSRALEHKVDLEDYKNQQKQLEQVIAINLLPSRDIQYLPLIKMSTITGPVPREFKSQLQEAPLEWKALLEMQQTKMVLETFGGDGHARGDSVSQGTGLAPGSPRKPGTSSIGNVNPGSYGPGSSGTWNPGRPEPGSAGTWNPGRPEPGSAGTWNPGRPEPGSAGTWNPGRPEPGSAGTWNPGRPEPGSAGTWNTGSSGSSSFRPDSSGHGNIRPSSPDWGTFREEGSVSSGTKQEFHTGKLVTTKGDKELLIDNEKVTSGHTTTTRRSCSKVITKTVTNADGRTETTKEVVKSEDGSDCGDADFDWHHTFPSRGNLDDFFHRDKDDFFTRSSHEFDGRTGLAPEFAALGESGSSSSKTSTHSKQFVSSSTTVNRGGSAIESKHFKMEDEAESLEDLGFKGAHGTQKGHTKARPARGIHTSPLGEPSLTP
Sequence (P02676 whole entry): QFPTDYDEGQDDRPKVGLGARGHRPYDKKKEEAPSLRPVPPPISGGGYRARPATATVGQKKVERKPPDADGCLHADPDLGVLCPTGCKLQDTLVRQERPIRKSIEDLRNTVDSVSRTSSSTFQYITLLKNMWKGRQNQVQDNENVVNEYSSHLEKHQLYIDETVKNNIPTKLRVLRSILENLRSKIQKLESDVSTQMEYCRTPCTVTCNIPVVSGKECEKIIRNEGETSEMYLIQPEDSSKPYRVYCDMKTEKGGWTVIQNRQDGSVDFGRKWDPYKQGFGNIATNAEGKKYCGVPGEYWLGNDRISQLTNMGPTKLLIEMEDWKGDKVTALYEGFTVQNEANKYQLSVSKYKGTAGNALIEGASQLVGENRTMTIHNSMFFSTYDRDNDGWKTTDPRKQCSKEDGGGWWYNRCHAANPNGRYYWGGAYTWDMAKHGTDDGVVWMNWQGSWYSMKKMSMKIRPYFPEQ
Sequence (P12799 25-444): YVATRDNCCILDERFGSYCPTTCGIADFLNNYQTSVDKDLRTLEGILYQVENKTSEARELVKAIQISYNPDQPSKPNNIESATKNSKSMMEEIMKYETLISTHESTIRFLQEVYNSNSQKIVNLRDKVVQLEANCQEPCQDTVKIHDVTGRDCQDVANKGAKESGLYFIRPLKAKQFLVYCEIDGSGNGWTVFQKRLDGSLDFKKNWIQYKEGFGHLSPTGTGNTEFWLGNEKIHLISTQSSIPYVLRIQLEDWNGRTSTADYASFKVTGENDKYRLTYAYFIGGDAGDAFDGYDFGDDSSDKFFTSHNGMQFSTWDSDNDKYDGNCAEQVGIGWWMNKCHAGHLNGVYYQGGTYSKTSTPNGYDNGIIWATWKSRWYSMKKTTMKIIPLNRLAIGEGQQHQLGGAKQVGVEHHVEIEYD
Experiment: SPR adsorption of fibrinogen to SAMs / grafted polymer films
Format: binding, bovine
Details: mixed SAM —CONRR′/—CO2H
Where a SMILES comes first, the peptide text is derived from it. [ ]: non-standard residue; d: D form. Sar = CNCC(=O)O
Classification by dR/dton fibrinogen (maximum initial rate of adsorption) follows these ranges: bin 1: < 60 RU/sec; bin 2: ≥ 60 RU/sec and < 300 RU/sec; bin 3: ≥ 300 RU/sec

CNCCN(C)C(=O)OC | bin 3
N#CCCNCCC#N | bin 3
CNC[C@H](OC)[C@H](OC)[C@H](OC)[C@H](COC)OC | bin 1
OCCOCCN1CCNCC1 | bin 1
NC[C@H](O)[C@H](O)[C@H](O)[C@@H](O)CO | bin 3
O=CN1CCNCC1 | bin 2
CNCC(=O)N(C)C | bin 1
CNCC(=O)N(C)CC(=O)N(C)CC(=O)N(C)CC(=O)N(C)CC(=O)N(C)C [H(CH3)N(Sar)5N(CH3)2] | bin 1
CN(C)C(=O)CNC(=O)CNC(=O)CN [H2N(Gly)3N(CH3)2] (H-Gly-Gly-Gly-NMe2) | bin 1
CNCCN(C)C | bin 2
C1COCCOCCOCCOCCOCCN1 | bin 1
CC(=O)NCCN | bin 1
CNCCN(C)P(=O)(N(C)C)N(C)C | bin 2
NC(CCCO)(CCCO)CCCO | bin 3
Nc1ccc(O[C@@H]2O[C@H](CO)[C@H](O)[C@H](O)[C@H]2O)cc1 | bin 3
NCC1COCCOCCOCCOCCOCCO1 (centres unmarked) | bin 3
CNCCN(C)C(C)=O | bin 1
CNCC(=O)N(C)CC(=O)N(C)CC(=O)N(C)CC(=O)N(C)C [H(CH3)N(Sar)4N(CH3)2] (H-[Sar][Sar][Sar][Sar]-NMe2) | bin 2
CN(C)C(=O)CN | bin 2
N#CCC(N)=C(C#N)C#N | bin 2
N#CCNCC#N | bin 3
Nc1ccc(O[C@@H]2O[C@H](CO)[C@@H](O[C@@H]3O[C@H](CO)[C@H](O)[C@H](O)[C@H]3O)[C@H](O)[C@H]2O)cc1 | bin 2
CN1CCNCC1 | bin 1
